Observed IC50 for C-C chemokine receptor type 5 (Homo sapiens), reported per entry below.
quantity-name: IC50 (nM)

molecule=CCCN(C(=O)OCc1ccccc1)C1CCN(CC[C@H](CN(C)S(=O)(=O)c2ccccc2)c2ccccc2)CC1 target_desc="C-C chemokine receptor type 5 (Homo sapiens)" numeric_readout=3.98
molecule=COC(=O)NC1CCN(CC[C@H](CN(C)S(=O)(=O)c2ccccc2)c2ccccc2)CC1 target_desc="C-C chemokine receptor type 5 (Homo sapiens)" numeric_readout=1000
molecule="C=CCN(C(=O)c1ccc([N+](=O)[O-])cc1)C1CCN(CCC(CN(C)S(=O)(=O)c2ccccc2)c2ccccc2)CC1 (stereo not given)" target_desc="C-C chemokine receptor type 5 (Homo sapiens)" numeric_readout=2
molecule=CCCN(C(=O)OCc1ccc(C(N)=O)cc1)C1CCN(CC[C@H](CN(C)S(=O)(=O)c2ccccc2)c2ccccc2)CC1 target_desc="C-C chemokine receptor type 5 (Homo sapiens)" numeric_readout=3.02
molecule="CCCN(C(=O)NC)C1CCN(CCC(CN(C)S(=O)(=O)c2ccccc2)c2ccccc2)CC1 (stereo not given)" target_desc="C-C chemokine receptor type 5 (Homo sapiens)" numeric_readout=1000
